Assay method text: growth suppression of beta-catenin knockout HCT116, pilot screen, human colon tumor cells (AID 823);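 further: 0% = wells killed by 20 µM Hyamine and 100% = untreated DMSO cell wells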
Test conditions: CellTiter-Glo, 60 h, at 10 µM, stronger effect = lower value
Records with an inconclusive call do not appear.
What viability was measured for each of the following?
API: value field is a number in %; no unit string.

*Q* Returns the measured viability for the input compound. Input: COc1ccc(-c2noc(Cc3ccccc3OC)n2)cc1
*A* 94

*Q* Same again, this time with CCc1ccc(NC(=O)CSc2nc3c(c(=O)n(C)c(=O)n3C)n2C)cc1
*A* 91.8

*Q* Same again, this time with Cc1ccc(-c2nn3c(C)nnc3s2)cc1NC(=O)c1ccco1
*A* 113

*Q* Same again, this time with CCC1(C)Cc2nc3sc(C(=O)O)c(N)c3cc2CO1 (stereo unspecified)
*A* 94.2

*Q* Same again, this time with Cc1nccn1-c1c2c(c(C#N)c3nc4ccccc4n13)CCC2
*A* 97.3

*Q* Same again, this time with O=C(O)C1C2C=CC3(CN(Cc4ccco4)C(=O)C13)O2 (stereo unspecified)
*A* 112

*Q* Same again, this time with COC(=O)COC(=O)c1ccc(Oc2nc(OC)nc(N(C)C)n2)cc1
*A* 103

*Q* Same again, this time with O=C(Cn1cnc2c(nnn2-c2ccccc2)c1=O)N1CCCc2ccccc21
*A* 101

*Q* Same again, this time with CCOc1ccc(N(CC(=O)O)S(=O)(=O)c2cccnc2)cc1
*A* 94.4

*Q* Same again, this time with COc1ccc(CCNc2ncnc3nc[nH]c23)cc1OC
*A* 82.8

*Q* Same again, this time with CC(=O)c1cccc(NC(=O)C2CCN(S(=O)(=O)c3ccc(F)cc3)CC2)c1
*A* 92

*Q* Same again, this time with Cc1ccccc1C(=O)N1CCC(C(=O)Nc2cccc(F)c2)CC1
*A* 98.1

*Q* Same again, this time with CN(Cc1ccco1)C(=O)C(Cc1ccccc1)NS(=O)(=O)c1ccc2c(c1)CCC(=O)N2 (stereo unspecified)
*A* 94.9

*Q* Same again, this time with CC(C)NC(=O)CCCc1ccccc1
*A* 92.1

*Q* Same again, this time with CC(=O)c1cccc(NC(=O)c2cnn3ccccc23)c1
*A* 95.5

*Q* Same again, this time with O=C(Nc1ccc2nc(-c3cccnc3)[nH]c2c1)c1ccco1
*A* 100

====

Assay method text: OD615 S. cerevisiae growth inhibition, permissive medium, pilot counter-assay, permissive growth control for S. cerevisiae lifespan shortening project (AID 705)
Test conditions: OD615, 24 h, at 10 µM, stronger effect = higher value
Recorded metric: growth inhibition (%)
API: value field is a number in %; no unit string.

*Q* Returns the measured growth inhibition for the input molecule. Input: CCc1c(C)nc(SCCOc2ccc(OC)cc2)[nH]c1=O
*A* -12.6

*Q* Same again, this time with O=S(=O)(NCCSc1nnc(-c2ccco2)n1-c1ccccc1)c1ccccc1
*A* -14.1

*Q* Same again, this time with Cc1ccccc1NC(=O)CCN1CCN(Cc2ccccc2)CC1
*A* -9.43

*Q* Same again, this time with Cc1cccc(OCc2nnc(SCC(=O)Nc3ccc(C)c(C)c3)o2)c1
*A* -5.54

*Q* Same again, this time with Cc1noc(NS(=O)(=O)c2ccc(NC(=O)COc3ccc(Cl)cc3Cl)cc2)c1C
*A* -2.93

*Q* Same again, this time with Cc1ccc(CNC(=O)C2CCCN(c3nc4ccccc4o3)C2)cc1 (configuration not stated)
*A* -20.4

*Q* Same again, this time with CSCC[C@@H](C(=O)O)N1Cc2ccccc2C1=O
*A* 7.93

*Q* Same again, this time with COc1ccccc1N1CCN(C(=O)c2cc3cc(Br)ccc3oc2=O)CC1
*A* 2.45

*Q* Same again, this time with CCCCC(NC(C)=O)c1nc2ccccc2n1CCCC (configuration not stated)
*A* -16.8

*Q* Same again, this time with Cc1ccc(CC(=O)N2CCC(c3nc4c(nnn4Cc4ccccc4)c(=O)[nH]3)CC2)cc1
*A* -10.5

*Q* Same again, this time with CCOC(=O)C1(c2csc(N)n2)COC(=O)C1 (configuration not stated)
*A* -11.9

*Q* Same again, this time with CC(=O)/C(C(=N)N1CCN(C(c2ccccc2)c2ccccc2)CC1)=C(\C)O
*A* -2.42

*Q* Same again, this time with O=C(CN1C(=O)C2C3C=CC(C3)C2C1=O)Nc1ccc2nccnc2c1 (configuration not stated)
*A* 7.15

*Q* Same again, this time with CC1CCCN(C(=O)c2ccc3c(c2)C(=O)N(CCC2=CCCCC2)C3=O)C1 (configuration not stated)
*A* -5.42

*Q* Same again, this time with CCCN(CCC)S(=O)(=O)c1ccc(C(=O)N2CCC(=O)c3ccccc32)cc1
*A* -0.75

*Q* Same again, this time with c1ccc(-c2noc(CSc3nnnn3-c3ccccc3)n2)cc1
*A* -10.7

*Q* Same again, this time with CC(C)N1C(=O)CCC1C(=O)NCCc1ccc(Cl)cc1 (configuration not stated)
*A* -1.75
